Values from patent US20260083865A1

measuredOn: PSMA-expressing C4-2 cells (Homo sapiens, UniProt Q04609)
Construct: PSMA-expressing C4-2 cells (ATCC, Cat. No. CRL-3314) were cultured in RPMI-1640; host or cells: C4-2 cells
Sequence (Q04609 whole entry): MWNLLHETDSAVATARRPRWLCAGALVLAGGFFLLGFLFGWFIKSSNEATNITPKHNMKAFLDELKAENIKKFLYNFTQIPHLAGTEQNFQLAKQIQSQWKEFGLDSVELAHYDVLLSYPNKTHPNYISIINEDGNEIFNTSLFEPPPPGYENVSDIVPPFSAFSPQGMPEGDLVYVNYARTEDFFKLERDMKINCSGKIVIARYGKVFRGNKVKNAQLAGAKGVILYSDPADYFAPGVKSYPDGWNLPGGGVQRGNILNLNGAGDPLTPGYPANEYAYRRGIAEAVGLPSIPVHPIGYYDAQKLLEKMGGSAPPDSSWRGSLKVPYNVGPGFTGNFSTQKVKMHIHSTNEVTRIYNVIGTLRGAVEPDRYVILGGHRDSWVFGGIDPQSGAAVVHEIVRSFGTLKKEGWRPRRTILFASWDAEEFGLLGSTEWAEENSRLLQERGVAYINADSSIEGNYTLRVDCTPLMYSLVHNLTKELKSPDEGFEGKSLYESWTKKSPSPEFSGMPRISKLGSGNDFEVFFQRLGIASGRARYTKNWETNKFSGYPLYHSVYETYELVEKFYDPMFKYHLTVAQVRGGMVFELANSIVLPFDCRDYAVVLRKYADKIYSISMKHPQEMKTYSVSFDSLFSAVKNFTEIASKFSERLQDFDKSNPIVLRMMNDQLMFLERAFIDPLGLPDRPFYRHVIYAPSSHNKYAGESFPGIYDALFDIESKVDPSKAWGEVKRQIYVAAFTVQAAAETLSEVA
testDetails: FACS binding assay (competition with 50 nM PSM-0183)
details: pIC50 category of FACS binding, C4-2 cells; read-out: pIC50 [C4-2] CAT (converted)
Numbered stars: 1 amine (or outer) side, 2 acyl side, 3 side chain; on linkers, the order of the positions; unused ones are H or OH. Bridge positions count the residues as written; N and C are the ends. Square brackets hold non-standard residues; d marks the D form. Peptide text beside a SMILES is read from it. * marks the point of attachment. DOTA = O=C(O)CN1CCN(CC(=O)O)CCN(CC(=O)*)CCN(CC(=O)O)CC1; Phe(4-Cl) = N[C@@H](Cc1ccc(Cl)cc1)C(=O)O; Ethylenediamine = C(CN[*:2])N[*:1]; X1 = O=C(CC1CCN([*:1])CC1)[*:2]; Tle = CC(C)(C)[C@H](N)C(=O)O; Orn = NCCC[C@H](N)C(=O)O; Aib = CC(C)(N)C(=O)O
property: IC50

molecule: CC(=O)NC(C)(C)C(=O)N[C@@H](Cc1ccc(Cl)cc1)C(=O)N[C@H]1CSSC[C@@H](C(=O)N[C@H](C(=O)NCCNC(=O)CN2CCN(CC(=O)O)CCN(CC(=O)O)CCN(CC(=O)O)CC2)C(C)(C)C)NC(=O)[C@H](CC(N)=O)NC(=O)C(C)(C)NC(=O)[C@H](CCCNC(=N)N)NC(=O)[C@H](CCCCN)NC1=O [PSM-0516] (Ac-[Aib][Phe(4-Cl)]CKR[Aib]NC[Tle]-{Ethylenediamine-DOTA}; disulfide 3-8)
IC50: < 200 nM

Attention now turns to another entry.
Report IC50 for C[C@@H](O)[C@H](NC(=O)[C@@H](NC(=O)[C@@H]1CSSC[C@H](NC(=O)[C@H](Cc2ccc(Cl)cc2)NC(=O)C(C)(C)NC(=O)[C@@H](NC(=O)CC2CCN(C(=O)CN3CCN(CC(=O)O)CCN(CC(=O)O)CCN(CC(=O)O)CC3)CC2)[C@@H](C)O)C(=O)N[C@@H](CCCN)C(=O)N[C@@H](CCCNC(=N)N)C(=O)NC(C)(C)C(=O)N[C@@H](CC(N)=O)C(=O)N1)C(C)(C)C)C(N)=O [PSM-0511] ({DOTA}-[X1]T[Aib][Phe(4-Cl)]C[Orn]R[Aib]NC[Tle]T-NH2; disulfide 5-10) < 200 nM

---

System: PC3-PIP tumor model
Parameters: species or system mice
details: mouse, in vivo
Numbered stars: 1 amine (or outer) side, 2 acyl side, 3 side chain; on linkers, the order of the positions; unused ones are H or OH. Bridge positions count the residues as written; N and C are the ends. Square brackets hold non-standard residues; d marks the D form. Peptide text beside a SMILES is read from it. * marks the point of attachment. TtdsdLys(DOTA)NH2 = NC(=O)[C@@H](CCCCNC(=O)CN1CCN(CC(=O)O)CCN(CC(=O)O)CCN(CC(=O)O)CC1)NC(=O)CCC(=O)NCCCOCCOCCOCCCN*; DOTA = O=C(O)CN1CCN(CC(=O)O)CCN(CC(=O)*)CCN(CC(=O)O)CC1; Phe(4-Cl) = N[C@@H](Cc1ccc(Cl)cc1)C(=O)O; Ethylenediamine = C(CN[*:2])N[*:1]; Tle = CC(C)(C)[C@H](N)C(=O)O; 4Amb = NCc1ccc(C(=O)O)cc1; Aib = CC(C)(N)C(=O)O
property: AUC ratio [T/K]
Give your answer as a number; write no unit.

molecule: CC(=O)N[C@H](C(=O)NC(C)(C)C(=O)N[C@@H](Cc1ccccc1)C(=O)N[C@H]1CSSC[C@@H](C(=O)N[C@H](C(=O)N[C@H](C(=O)NCCCOCCOCCOCCCNC(=O)CCC(=O)N[C@H](CCCCNC(=O)CN2CCN(CC(=O)O)CCN(CC(=O)O)CCN(CC(=O)O)CC2)C(N)=O)[C@@H](C)O)C(C)(C)C)NC(=O)[C@H](CC(N)=O)NC(=O)C(C)(C)NC(=O)[C@H](CCCNC(=N)N)NC(=O)[C@H](CCCCN)NC1=O)[C@@H](C)O [PSM-0285] (Ac-T[Aib]FCKR[Aib]NC[Tle]T-{TtdsdLys(DOTA)NH2}; disulfide 4-9)
AUC ratio [T/K]: 0.91

Please respond with reported AUC ratio [T/K] (system PC3-PIP tumor model) for C[C@@H](O)[C@H](NC(=O)[C@@H](NC(=O)[C@@H]1CSSC[C@H](NC(=O)[C@H](Cc2ccc(Cl)cc2)NC(=O)C(C)(C)NC(=O)[C@@H](NC(=O)CN2CCN(CC(=O)O)CCN(CC(=O)O)CCN(CC(=O)O)CC2)[C@@H](C)O)C(=O)N[C@@H](CCCCN)C(=O)N[C@@H](CCCNC(=N)N)C(=O)NC(C)(C)C(=O)N[C@@H](CC(N)=O)C(=O)N1)C(C)(C)C)C(N)=O [PSM-0573] ({DOTA}-T[Aib][Phe(4-Cl)]CKR[Aib]NC[Tle]T-NH2; disulfide 4-9) . 1.1

Please respond with reported AUC ratio [T/K] (system PC3-PIP tumor model) for CC(C)(NC(=O)c1ccc(CNC(=O)CN2CCN(CC(=O)O)CCN(CC(=O)O)CCN(CC(=O)O)CC2)cc1)C(=O)N[C@@H](Cc1ccc(Cl)cc1)C(=O)N[C@H]1CSSC[C@@H](C(=O)N[C@H](C(=O)NCCN)C(C)(C)C)NC(=O)[C@H](CC(N)=O)NC(=O)C(C)(C)NC(=O)[C@H](CCCNC(=N)N)NC(=O)[C@H](CCCCN)NC1=O [PSM-0273] ({DOTA-4Amb}-[Aib][Phe(4-Cl)]CKR[Aib]NC[Tle]-Ethylenediamine; disulfide 3-8) . 0.21

---

measuredOn: PSMA-expressing C4-2 cells (Homo sapiens, UniProt Q04609)
Construct: PSMA-expressing C4-2 cells (ATCC, Cat. No. CRL-3314) were cultured in RPMI-1640; host or cells: C4-2 cells
testDetails: FACS binding assay (competition with 50 nM PSM-0183)
details: pIC50 category of FACS binding, C4-2 cells; read-out: pIC50 [C4-2] CAT (converted)
Numbered stars: 1 amine (or outer) side, 2 acyl side, 3 side chain; on linkers, the order of the positions; unused ones are H or OH. Bridge positions count the residues as written; N and C are the ends. Square brackets hold non-standard residues; d marks the D form. Peptide text beside a SMILES is read from it. * marks the point of attachment. ξ: configuration not given here. DOTA = O=C(O)CN1CCN(CC(=O)O)CCN(CC(=O)*)CCN(CC(=O)O)CC1; Phe(4-CF3) = N[C@@H](Cc1ccc(C(F)(F)F)cc1)C(=O)O; Phe(4-Cl) = N[C@@H](Cc1ccc(Cl)cc1)C(=O)O; Phe(4-NH2) = Nc1ccc(C[C@H](N)C(=O)O)cc1; Phe(3-F) = N[C@@H](Cc1cccc(F)c1)C(=O)O; Arg(Me) = CNC(=N)NCCC[C@H](N)C(=O)O; X1 = O=C(CC1CCN([*:1])CC1)[*:2]; Cit = NC(=O)NCCC[C@H](N)C(=O)O; Lys(Me) = CNCCCC[C@H](N)C(=O)O; Tle = CC(C)(C)[C@H](N)C(=O)O; Deg = CCC(N)(CC)C(=O)O; Aib = CC(C)(N)C(=O)O; ξP = O=C(O)C1CCCN1
property: IC50

compound: CC(=O)N[C@H](C(=O)NC(C)(C)C(=O)N[C@@H](Cc1ccc(Cl)cc1)C(=O)N[C@H]1CSSC[C@@H](C(=O)N[C@H](C(=O)N[C@H](C(=O)O)[C@@H](C)O)C(C)(C)C)NC(=O)[C@H](CC(N)=O)NC(=O)C(C)(C)NC(=O)[C@H](CCCNC(=N)N)NC(=O)[C@H](CCCCN)NC1=O)[C@@H](C)O [PSM-0493] (Ac-T[Aib][Phe(4-Cl)]CKR[Aib]NC[Tle]T-OH; disulfide 4-9)
measuredOn: PSMA-expressing C4-2 cells (Homo sapiens, UniProt Q04609)
property: IC50
measured: < 200 nM
--
compound: CC(=O)N[C@H](C(=O)NC(C)(C)C(=O)N[C@@H](Cc1ccc(C(F)(F)F)cc1)C(=O)N[C@H]1CSSC[C@@H](C(=O)N[C@H](C(=O)N[C@H](C(N)=O)[C@@H](C)O)C(C)(C)C)NC(=O)[C@H](CC(N)=O)NC(=O)C(C)(C)NC(=O)[C@H](CCCNC(=N)N)NC(=O)[C@H](CCCCN)NC1=O)[C@@H](C)O [PSM-0550] (Ac-T[Aib][Phe(4-CF3)]CKR[Aib]NC[Tle]T-NH2; disulfide 4-9)
measuredOn: PSMA-expressing C4-2 cells (Homo sapiens, UniProt Q04609)
property: IC50
measured: < 200 nM
--
compound: CCC1(CC)NC(=O)[C@H](CCCNC(=N)N)NC(=O)[C@H](CCCCN)NC(=O)[C@@H](NC(=O)[C@H](Cc2ccccc2)NC(=O)C(C)(C)NC(=O)[C@@H](NC(C)=O)[C@@H](C)O)CSSC[C@@H](C(=O)N[C@H](C(=O)N[C@H](C(N)=O)[C@@H](C)O)C(C)(C)C)NC(=O)[C@H](CC(N)=O)NC1=O [PSM-0375] (Ac-T[Aib]FCKR[Deg]NC[Tle]T-NH2; disulfide 4-9)
measuredOn: PSMA-expressing C4-2 cells (Homo sapiens, UniProt Q04609)
property: IC50
measured: < 200 nM
--
compound: CC(=O)N[C@H](C(=O)NC(C)(C)C(=O)N[C@@H](Cc1ccc(Cl)cc1)C(=O)N[C@H]1CSSC[C@@H](C(=O)N[C@H](CC(C)C)C(=O)N[C@H](C(N)=O)[C@@H](C)O)NC(=O)[C@H](CC(N)=O)NC(=O)C(C)(C)NC(=O)[C@H](CCCNC(N)=O)NC(=O)[C@H](CCCCN)NC1=O)[C@@H](C)O [PSM-0421] (Ac-T[Aib][Phe(4-Cl)]CK[Cit][Aib]NC[dL]T-NH2; disulfide 4-9)
measuredOn: PSMA-expressing C4-2 cells (Homo sapiens, UniProt Q04609)
property: IC50
measured: 200 to 1260 nM
--
compound: CC(=O)N[C@H](C(=O)NC(C)(C)C(=O)N[C@@H](Cc1ccccc1)C(=O)N[C@H]1CSSC[C@@H](C(=O)N[C@H](C(=O)N2CCCC2C(N)=O)C(C)(C)C)NC(=O)[C@H](CC(N)=O)NC(=O)C(C)(C)NC(=O)[C@H](CCCNC(=N)N)NC(=O)[C@H](CCCCN)NC1=O)[C@@H](C)O (some centres unmarked) [PSM-0388] (Ac-T[Aib]FCKR[Aib]NC[Tle][ξP]-NH2; disulfide 4-9)
measuredOn: PSMA-expressing C4-2 cells (Homo sapiens, UniProt Q04609)
property: IC50
measured: < 200 nM
--
compound: CNCCCC[C@@H]1NC(=O)[C@@H](NC(=O)[C@H](Cc2cccc(F)c2)NC(=O)C(C)(C)NC(=O)[C@@H](NC(=O)CC2CCN(C(=O)CN3CCN(CC(=O)O)CCN(CC(=O)O)CCN(CC(=O)O)CC3)CC2)[C@@H](C)O)CSSC[C@@H](C(=O)N[C@H](C(N)=O)C(C)(C)C)NC(=O)[C@H](CC(N)=O)NC(=O)C(C)(C)NC(=O)[C@H](CCCNC(=N)NC)NC1=O [PSM-0553] ({DOTA}-[X1]T[Aib][Phe(3-F)]C[Lys(Me)][Arg(Me)][Aib]NC[Tle]-NH2; disulfide 5-10)
measuredOn: PSMA-expressing C4-2 cells (Homo sapiens, UniProt Q04609)
property: IC50
measured: < 200 nM
--
compound: CC(=O)N[C@@H](Cc1ccc(Cl)cc1)C(=O)N[C@H]1CSSC[C@@H](C(N)=O)NC(=O)[C@H](CC(N)=O)NC(=O)C(C)(C)NC(=O)[C@H](CCCNC(=N)N)NC(=O)[C@H](CCCCN)NC1=O [PSM-0524, Ac-Pcf-[Cys-Lys-Arg-Aib-Asn-Cys]-NH2] (Ac-[Phe(4-Cl)]CKR[Aib]NC-NH2; disulfide 2-7)
measuredOn: PSMA-expressing C4-2 cells (Homo sapiens, UniProt Q04609)
property: IC50
measured: > 3160 nM

Attention now turns to another entry.
Report IC50 for CC(=O)N[C@H](C(=O)NC(C)(C)C(=O)N[C@@H](Cc1ccccc1)C(=O)N[C@H]1CSSC[C@@H](C(=O)N[C@H](C(=O)N[C@H](C(=O)N[C@@H](CC(=O)O)C(N)=O)[C@@H](C)O)C(C)(C)C)NC(=O)[C@H](CC(N)=O)NC(=O)[C@H](C)NC(=O)[C@H](CCCNC(=N)N)NC(=O)[C@H](Cc2ccc(N)cc2)NC1=O)[C@@H](C)O [PSM-0439] (Ac-T[Aib]FC[Phe(4-NH2)]RANC[Tle]TD-NH2; disulfide 4-9) < 200 nM
